Data origin, for the record: paper PMC2731475

system: RNA5
assayExplanation: Fluorescence binding assay, RNA5
conditionsUsed: RNA5, 1×1 UU loop with GU closing pairs
pKd: −log10 of the molar value.
outcomeMeasure: pKd

CN1CCN(c2ccc3nc(-c4ccc5nc(-c6cccc(OCCCC(=O)NCCCN=[N+]=[N-])c6)[nH]c5c4)[nH]c3c2)CC1 [Compound 2] :: 6.09

###

system: r(CUG)109-MBNL1 complex
assayExplanation: r
conditionsUsed: 0.65 pmoles r(CUG)109 immobilized, 3.7 μM bulk yeast tRNA, 32 pmoles MBNL1
outcomeMeasure: IC50

CN1CCN(c2ccc3nc(-c4ccc5nc(-c6cccc(OCCCC(=O)NCCCN=[N+]=[N-])c6)[nH]c5c4)[nH]c3c2)CC1 :: 110 µM

###

system: RNA6
assayExplanation: Fluorescence binding assay, RNA6
conditionsUsed: RNA6, 1×1 CC loop
pKd: −log10 of the molar value.
outcomeMeasure: pKd

CN1CCN(c2ccc3nc(-c4ccc5nc(-c6cccc(OCCCC(=O)NCCCN=[N+]=[N-])c6)[nH]c5c4)[nH]c3c2)CC1 [Compound 2] :: 6.54

###

system: RNA8
assayExplanation: Fluorescence binding assay, RNA8
conditionsUsed: RNA8
outcomeMeasure: Kd (nM)

CN1CCN(c2ccc3nc(-c4ccc5nc(-c6cccc(OCCCC(=O)NCCCN=[N+]=[N-])c6)[nH]c5c4)[nH]c3c2)CC1 [Compound 2] :: 520

###

system: RNA10
assayExplanation: Fluorescence binding assay, RNA10
conditionsUsed: RNA10, 1×1 AA loop
outcomeMeasure: Kd (nM)

CN1CCN(c2ccc3nc(-c4ccc5nc(-c6cccc(OCCCC(=O)NCCCN=[N+]=[N-])c6)[nH]c5c4)[nH]c3c2)CC1 :: 820

###

system: RNA2
assayExplanation: Fluorescence binding assay, RNA2
conditionsUsed: RNA2, single 5′CUG/3′GUC (DM1) motif
pKd: −log10 of the molar value.
outcomeMeasure: pKd

CN1CCN(c2ccc3nc(-c4ccc5nc(-c6cccc(OCCCC(=O)NCCCN=[N+]=[N-])c6)[nH]c5c4)[nH]c3c2)CC1 [Compound 2] :: 6.89

###

system: r(CUG)109
assayExplanation: Fluorescence binding assay, r
conditionsUsed: r(CUG)109 hairpin, 54 DM1 motifs
outcomeMeasure: Kd (nM)

CN1CCN(c2ccc3nc(-c4ccc5nc(-c6cccc(OCCCC(=O)NCCCN=[N+]=[N-])c6)[nH]c5c4)[nH]c3c2)CC1 :: 150
